Consider the following compounds and their measured CC50 at 72 h readings.
assay: Cytotoxicity against human HeLa67 cells expressing CD4/CCR5 after 3 days by XTT assay; assay type: cell-based

chem smiles	lt gt eq	CC50 at 72 h, µM
Cc1ccc2[nH]cc(C(=O)C(=O)N3CCN(C(=O)c4ccccc4)CC3)c2c1	>	300
CC(=O)Oc1cccc2[nH]cc(C(=O)C(=O)N3CCN(C(=O)c4ccccc4)CC3)c12	>	300
O=C(C(=O)N1CCN(C(=O)c2ccccc2)CC1)c1c[nH]c2cc(C(F)(F)F)ccc12	=	54.5
O=C(C(=O)N1CCN(C(=O)c2ccccc2)CC1)c1c[nH]c2cc(F)ccc12	>	245
O=C(C(=O)N1CCN(C(=O)c2ccccc2)CC1)c1c[nH]c2cccc(Br)c12	=	142
O=C(C(=O)N1CCN(C(=O)c2ccccc2)CC1)c1c[nH]c2cc(Cl)c(F)cc12	=	98.5
O=C(C(=O)N1CCN(C(=O)c2ccccc2)CC1)c1c[nH]c2cc(F)cc(F)c12	>	188
O=C(C(=O)N1CCN(C(=O)c2ccccc2)CC1)c1c[nH]c2cc(Cl)c(Cl)cc12	=	52.3
CCc1cccc2c(C(=O)C(=O)N3CCN(C(=O)c4ccccc4)CC3)c[nH]c12	>	49
Cc1cccc2c(C(=O)C(=O)N3CCN(C(=O)c4ccccc4)CC3)c[nH]c12	>	218
N#Cc1ccc(F)c2c(C(=O)C(=O)N3CCN(C(=O)c4ccccc4)CC3)c[nH]c12	>	300
COc1cc2[nH]cc(C(=O)C(=O)N3CCN(C(=O)c4ccccc4)CC3)c2cc1OC	>	300
O=C(C(=O)N1CCN(C(=O)c2ccccc2)CC1)c1c[nH]c2c(F)ccc(F)c12	>	300
O=C(C(=O)N1CCN(C(=O)c2ccccc2)CC1)c1c[nH]c2c(F)ccc(Br)c12	=	86
O=C(C(=O)N1CCN(C(=O)c2ccccc2)CC1)c1c[nH]c2c(F)c(F)c(F)c(F)c12	=	55.7
O=C(C(=O)N1CCN(C(=O)c2ccccc2)CC1)c1c[nH]c2c(Br)ccc(OC(F)(F)F)c12	=	75.7
O=C(C(=O)N1CCN(C(=O)c2ccccc2)CC1)c1c[nH]c2c(Br)cc(F)cc12	=	22.5
O=C(C(=O)N1CCN(C(=O)c2ccccc2)CC1)c1c[nH]c2cccc([N+](=O)[O-])c12	>	300
COc1ccc(C#N)c2[nH]cc(C(=O)C(=O)N3CCN(C(=O)c4ccccc4)CC3)c12	>	275

* * *

test: Cmax in rat at 5 mg/kg, po dosed as nanosuspension; type: ADME, organism-based; set-up: dose 5 mg/kg, route oral; settings: in vivo

chem smiles	Cmax, ng/mL
O=C(C(=O)N1CCN(C(=O)c2ccccc2)CC1)c1c[nH]c2cccc(F)c12	18

* * *

experiment: Oral bioavailability in rat at 5 mg/kg dosed as nanosuspension; format: ADME, organism-based; conditions: in vivo

chem smiles	unit descriptor	bioavailability
O=C(C(=O)N1CCN(C(=O)c2ccccc2)CC1)c1c[nH]c2cccc(F)c12	%	4

* * *

assay: Tmax in rat at 25 mg/kg, po dosed as solution in PEG400/EtOH; type: ADME, organism-based; parameters: dose 25 mg/kg, route oral; details: in vivo

chem smiles	Tmax, min
O=C(C(=O)N1CCN(C(=O)c2ccccc2)CC1)c1c[nH]c2cccc(F)c12	53
O=C(C(=O)N1CCN(C(=O)c2ccccc2)CC1)c1c[nH]c2ccccc12	33

* * *

experiment: Oral bioavailability in dog at 1 mg/kg dosed as solution in PEG400/EtOH; assay type: ADME, organism-based, Canis lupus familiaris; conditions: in vivo

chem smiles	unit descriptor	bioavailability
O=C(C(=O)N1CCN(C(=O)c2ccccc2)CC1)c1c[nH]c2cccc(F)c12	%	89

* * *

test: Tmax in dog at 1 mg/kg, po dosed as nanosuspension; format: ADME, organism-based, Canis lupus familiaris; parameters: dose 1 mg/kg, route oral; conditions: in vivo
test readout: Tmax (h)

chem smiles	unit descriptor	measured result
O=C(C(=O)N1CCN(C(=O)c2ccccc2)CC1)c1c[nH]c2cccc(F)c12	h	1.8

* * *

assay: Cytotoxicity against human HeLa67 cells expressing CD4/CCR5 after 3 days by XTT assay; format: cell-based
Could you please mark Criterion met for values of CC50 at 72 h below 100 µM and Criterion not met for values at or above it?

chem smiles	answer label
CCCCOc1cccc2c(C(=O)C(=O)N3CCN(C(=O)c4ccccc4)CC3)c[nH]c12	Criterion met
N#Cc1cccc2c(C(=O)C(=O)N3CCN(C(=O)c4ccccc4)CC3)c[nH]c12	Criterion not met
O=C(C(=O)N1CCN(C(=O)c2ccccc2)CC1)c1c[nH]c2ccc([N+](=O)[O-])cc12	Criterion met
C/C=C/n1cc(C(=O)C(=O)N2CCN(C(=O)c3ccccc3)CC2)c2ccccc21	Criterion not met
O=C(C(=O)N1CCN(C(=O)c2ccccc2)CC1)c1c[nH]c2c(F)cccc12	Criterion not met
CC(=O)Oc1ccc2[nH]cc(C(=O)C(=O)N3CCN(C(=O)c4ccccc4)CC3)c2c1	Criterion met
COc1cccc2[nH]cc(C(=O)C(=O)N3CCN(C(=O)c4ccccc4)CC3)c12	Criterion not met
N#Cc1ccc2[nH]cc(C(=O)C(=O)N3CCN(C(=O)c4ccccc4)CC3)c2c1	Criterion not met
O=C(C(=O)N1CCN(C(=O)c2ccccc2)CC1)c1c[nH]c2ccc(F)cc12	Criterion not met

* * *

assay: Oral bioavailability in dog at 1 mg/kg dosed as micronized suspension; assay type: ADME, organism-based, Canis lupus familiaris; conditions: in vivo

chem smiles	unit descriptor	bioavailability
O=C(C(=O)N1CCN(C(=O)c2ccccc2)CC1)c1c[nH]c2cccc(F)c12	%	12

* * *

experiment: Tmax in rat at 5 mg/kg, po dosed as solution in PEG400/EtOH; format: ADME, organism-based; set-up: dose 5 mg/kg, route oral; settings: in vivo
test readout: Tmax (min)

chem smiles	measured result
O=C(C(=O)N1CCN(C(=O)c2ccccc2)CC1)c1c[nH]c2cccc(F)c12	37
COc1ccc(OC)c2c(C(=O)C(=O)N3CCN(C(=O)c4ccccc4)CC3)c[nH]c12	180
O=C(C(=O)N1CCN(C(=O)c2ccccc2)CC1)c1c[nH]c2c(F)ccc(F)c12	20

* * *

test: Tmax in dog at 1 mg/kg, po dosed as solution in PEG400/EtOH; format: ADME, organism-based, Canis lupus familiaris; parameters: dose 1 mg/kg, route oral; details: in vivo

chem smiles	unit descriptor	Tmax
O=C(C(=O)N1CCN(C(=O)c2ccccc2)CC1)c1c[nH]c2cccc(F)c12	h	1.2

* * *

assay: Terminal half life in rat at 25 mg/kg, po dosed as solution in PEG400/EtOH; assay type: ADME, organism-based; design: dose 25 mg/kg, route oral; conditions: in vivo, read-out: beta t1/2
Consider the following compounds and their measured half-life readings.

chem smiles	half-life / h
O=C(C(=O)N1CCN(C(=O)c2ccccc2)CC1)c1c[nH]c2ccccc12	2.72
O=C(C(=O)N1CCN(C(=O)c2ccccc2)CC1)c1c[nH]c2cccc(F)c12	1.2

* * *

test: Tmax in dog at 1 mg/kg, po dosed as micronized suspension; assay type: ADME, organism-based, Canis lupus familiaris; parameters: dose 1 mg/kg, route oral; details: in vivo
test readout: Tmax (h)

chem smiles	test readout	measured result
O=C(C(=O)N1CCN(C(=O)c2ccccc2)CC1)c1c[nH]c2cccc(F)c12	Tmax	4

* * *

test system: Human immunodeficiency virus 1; experiment: Antiviral activity against pseudotype HIV1 LAI infected in human HeLa67 cells expressing CD4/CCR5 after 3 days by luciferase reporter gene assay; format: functional, organism-based; conditions: Human immunodeficiency virus 1, LAI, HeLa67, 72 h
test readout: EC50 (nM)

chem smiles	measured result
O=C(C(=O)N1CCN(C(=O)c2ccccc2)CC1)c1c[nH]c2cc(Cl)c(Cl)cc12	500

* * *

assay: Terminal half life in rat at 1 mg/kg, iv dosed as solution in PEG400/EtOH; type: ADME, organism-based; design: dose 1 mg/kg, route intravenous; conditions: in vivo, read-out: beta t1/2
Consider the following compounds and their measured half-life readings.

chem smiles	unit descriptor	half-life
COc1ccc(OC)c2c(C(=O)C(=O)N3CCN(C(=O)c4ccccc4)CC3)c[nH]c12	min	138
O=C(C(=O)N1CCN(C(=O)c2ccccc2)CC1)c1c[nH]c2c(F)ccc(F)c12	min	17

* * *

experiment: Cytotoxicity against human HeLa67 cells expressing CD4/CCR5 after 3 days by XTT assay; type: cell-based

chem smiles	lt gt eq	CC50 at 72 h [µM]
O=C(C(=O)N1CCN(C(=O)c2ccccc2)CC1)c1c[nH]c2cccc(Cl)c12	=	212
O=C(C(=O)N1CCN(C(=O)c2ccccc2)CC1)c1c[nH]c2ccccc12	=	339
COc1ccc2c(C(=O)C(=O)N3CCN(C(=O)c4ccccc4)CC3)c[nH]c2c1	>	300
O=C(C(=O)N1CCN(C(=O)c2ccccc2)CC1)c1c[nH]c2c(Br)cccc12	=	64
CCn1cc(C(=O)C(=O)N2CCN(C(=O)c3ccccc3)CC2)c2ccccc21	>	300
Cc1ccc(C)c2c(C(=O)C(=O)N3CCN(C(=O)c4ccccc4)CC3)c[nH]c12	=	202
Cc1ccc(F)c2c(C(=O)C(=O)N3CCN(C(=O)c4ccccc4)CC3)c[nH]c12	=	87.5
O=C(C(=O)N1CCN(C(=O)c2ccccc2)CC1)c1c[nH]c2cccc(O)c12	>	300
Cn1cc(C(=O)C(=O)N2CCN(C(=O)c3ccccc3)CC2)c2ccccc21	=	226
N#Cc1ccc(F)c2[nH]cc(C(=O)C(=O)N3CCN(C(=O)c4ccccc4)CC3)c12	>	300
COc1ccc(Cl)c2[nH]cc(C(=O)C(=O)N3CCN(C(=O)c4ccccc4)CC3)c12	>	300
CCOc1cccc2c(C(=O)C(=O)N3CCN(C(=O)c4ccccc4)CC3)c[nH]c12	=	117
COc1cccc2c(C(=O)C(=O)N3CCN(C(=O)c4ccccc4)CC3)c[nH]c12	=	154
COc1ccc(F)c2c(C(=O)C(=O)N3CCN(C(=O)c4ccccc4)CC3)c[nH]c12	>	300
O=C(C(=O)N1CCN(C(=O)c2ccccc2)CC1)c1c[nH]c2cc(F)c(Br)c(F)c12	=	20.9
O=C(C(=O)N1CCN(C(=O)c2ccccc2)CC1)c1c[nH]c2cccc(F)c12	>	300
O=C(C(=O)N1CCN(C(=O)c2ccccc2)CC1)c1c[nH]c2c(Cl)cccc12	=	162
COc1ccc(OC)c2c(C(=O)C(=O)N3CCN(C(=O)c4ccccc4)CC3)c[nH]c12	=	279
CC(C)Oc1cccc2[nH]cc(C(=O)C(=O)N3CCN(C(=O)c4ccccc4)CC3)c12	=	150
O=C(C(=O)N1CCN(C(=O)c2ccccc2)CC1)c1c[nH]c2ccc(Br)cc12	>	149
